Cited source: the NIST ThermoML archive (doi:10.1021/acs.jced.6b00450)

Details: Glass; DSC
In plain terms, low Glass transition temperature, meaning strictly below -70 °C, gives True, and everything else gives False.

API: query returns whether the molecule falls strictly under -70 °C in Glass transition temperature. Query: Cn1ccnc1.O=S(=O)(O)O [1-methylimidazolium hydrogen sulfate]
True

State whether -70 °C exceeds Glass transition temperature recorded for N#CCCn1cc[nH+]c1.O=S(=O)([O-])O [1-(2-cyanoethyl)imidazolium hydrogen sulfate] .
False

Threshold test, Glass transition temperature < -70 °C: CS(=O)(=O)[O-].N#CCCn1cc[nH+]c1 [1-(2-cyanoethyl)imidazolium methanesulfonate]
False

Consider the molecule CC(=O)[O-].N#CCCn1cc[nH+]c1 [1-(2-cyanoethyl)imidazolium acetate] . Is its Glass transition temperature strictly less than -70 °C?
True

Is it true that Glass transition temperature reported for Cc1ccc(S(=O)(=O)[O-])cc1.N#CCCn1cc[nH+]c1 [1-(2-cyanoethyl)imidazolium 4-methylbenzenesulfonate] is less than -70 °C?
False

----------
Assay: refractive index (Na D-line) (dimensionless)
Settings: 303.15 K; 101.33 kPa; Liquid; Standard Abbe refractometry
Provide the reported refractive index of each item.
Respond using a number only.

For CS(=O)(=O)[O-].N#CCCn1cc[nH+]c1 [1-(2-cyanoethyl)imidazolium methanesulfonate] the compound record lists refractive index as 1.49962

Lab note: N#CCCn1cc[nH+]c1.O=S(=O)([O-])O [1-(2-cyanoethyl)imidazolium hydrogen sulfate] gave refractive index of 1.50034

// refractive index value for Cc1ccc(S(=O)(=O)[O-])cc1.N#CCCn1cc[nH+]c1 [1-(2-cyanoethyl)imidazolium 4-methylbenzenesulfonate] : 1.54297

Noted for CC(=O)[O-].N#CCCn1cc[nH+]c1 [1-(2-cyanoethyl)imidazolium acetate] : its refractive index reads 1.48197

So for Cn1ccnc1.O=S(=O)(O)O [1-methylimidazolium hydrogen sulfate] , the logged refractive index turned out to be 1.48761
